Data origin, for the record: patent US20210155689A1

Hi there, I'd appreciate the recorded Inhibition rate (%) for every entry that follows.
Molecular target: T1, human LAG-3 protein with hFc tag (hLAG-3-hFc protein) (human, UniProt P18627 23-450)
T1 construct: also called immunogen 1; LAG-3 extracellular domain protein; not shown: human IgG Fc fragment (hFc) of the pCpC vector
T1 sequence: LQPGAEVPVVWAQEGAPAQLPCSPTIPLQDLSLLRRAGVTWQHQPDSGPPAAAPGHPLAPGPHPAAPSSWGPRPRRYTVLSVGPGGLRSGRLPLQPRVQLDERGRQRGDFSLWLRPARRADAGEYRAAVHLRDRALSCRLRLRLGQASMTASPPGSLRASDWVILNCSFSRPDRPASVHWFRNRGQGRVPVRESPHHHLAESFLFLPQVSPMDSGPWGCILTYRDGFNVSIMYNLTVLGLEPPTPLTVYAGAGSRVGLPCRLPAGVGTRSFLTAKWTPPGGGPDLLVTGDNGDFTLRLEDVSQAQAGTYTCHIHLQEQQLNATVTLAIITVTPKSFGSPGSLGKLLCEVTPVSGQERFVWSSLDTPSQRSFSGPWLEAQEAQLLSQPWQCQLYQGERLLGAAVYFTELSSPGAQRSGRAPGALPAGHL
Experiment: FACS, blocks LAG-3-hFc binding to MHC II on Raji; 22.222 nM
A bare number is not enough; add the unit after it.

Suppose we examine the binder 556F6B8 (mouse antibody purified from hybridoma) (antibody, V domains shown, also called mAb123-556F6B8) VH: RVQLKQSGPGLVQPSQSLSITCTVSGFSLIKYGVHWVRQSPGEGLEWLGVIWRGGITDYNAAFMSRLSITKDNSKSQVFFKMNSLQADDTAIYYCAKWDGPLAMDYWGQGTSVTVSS VL: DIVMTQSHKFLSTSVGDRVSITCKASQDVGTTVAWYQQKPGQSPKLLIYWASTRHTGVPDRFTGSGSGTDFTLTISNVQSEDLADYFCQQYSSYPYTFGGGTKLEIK ; what Inhibition rate (%) value has been reported?
95.6%

Suppose we examine the binder 405B8H3 (mouse antibody purified from hybridoma) (antibody, V domains shown, also called mAb103-405B8H3; 405B81-13) VH: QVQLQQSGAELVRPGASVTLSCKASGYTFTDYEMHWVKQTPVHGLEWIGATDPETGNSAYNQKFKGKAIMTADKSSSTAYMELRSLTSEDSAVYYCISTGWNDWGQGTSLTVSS VL: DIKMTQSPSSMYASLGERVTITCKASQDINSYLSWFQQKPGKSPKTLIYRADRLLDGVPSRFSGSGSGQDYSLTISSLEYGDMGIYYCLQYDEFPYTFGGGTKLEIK ; what Inhibition rate (%) value has been reported?
93.6%

Suppose we examine the binder 409D4E10 (mouse antibody purified from hybridoma) (antibody, V domains shown, also called mAb112-409D4E10) VH: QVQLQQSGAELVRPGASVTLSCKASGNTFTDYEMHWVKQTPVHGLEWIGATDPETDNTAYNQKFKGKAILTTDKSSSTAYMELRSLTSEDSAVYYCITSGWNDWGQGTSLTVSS VL: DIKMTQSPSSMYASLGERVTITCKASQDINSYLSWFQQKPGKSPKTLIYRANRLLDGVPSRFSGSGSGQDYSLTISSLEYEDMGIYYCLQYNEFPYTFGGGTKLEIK ; what Inhibition rate (%) value has been reported?
95.8%

Suppose we examine the binder 105F1E10 (mouse antibody purified from hybridoma) (antibody, V domains shown, also called mAb009-105F1E10) VH: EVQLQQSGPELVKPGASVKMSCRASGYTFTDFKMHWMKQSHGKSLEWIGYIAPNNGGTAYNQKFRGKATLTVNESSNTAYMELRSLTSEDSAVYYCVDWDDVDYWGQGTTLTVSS VL: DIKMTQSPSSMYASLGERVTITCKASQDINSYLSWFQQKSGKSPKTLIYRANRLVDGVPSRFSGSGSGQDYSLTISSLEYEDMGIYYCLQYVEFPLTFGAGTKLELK ; what Inhibition rate (%) value has been reported?
93.6%
